B1: FCHSD1 (parent)
chain: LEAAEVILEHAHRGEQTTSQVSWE

Variants of: B1
Test: protein stability index of a GFP-peptide fusion (GPS, HEK-293T) (PSI 1-6); higher = more stable;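 further: lentivirally expressed fusions sorted by FACS into six bins by GFP to DsRed ratio, PSI derived from sequencing read proportions per bin multiplied by bin number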
Conditions: c terminus: a fixed tail appended
Observed property: protein stability index
Could you respond with only the numeric value?

Worked examples, 4 variants total:
Residue sequence | Assay result
LEAAEVILEHHHRGEQTTSQVSWE [A11H] | 4.05
LEAAEVILEHAHRGEQTLSQVSWE [T18L] | 4.11
LEAAEVILEHAHRGECTTSQVSWE [Q16C] | 2.73
LEAAEVILEHAHYGEQTTSQVSWE [R13Y] | 3.44

Problem: Return protein stability index for the following variant: LEAAEVILEYAHRGEQTTSQVSWE [H10Y]
Result: 3.15

Problem: Return protein stability index for the following variant: LEAAEVILEHAHRGEQTTMQVSWE [S19M]
Result: 3

Problem: Return protein stability index for the following variant: LEAAEVILEHAHRGEQTTSQVRWE [S22R]
Result: 3.74
